Listed next: entries and their corresponding pKd.
Biological target: T1, recombinant human IL-13 (human, UniProt P35225 35-146)
T1 construct: also called rh-IL-13; hIL-13
T1 sequence (P35225 35-146 limits assumed): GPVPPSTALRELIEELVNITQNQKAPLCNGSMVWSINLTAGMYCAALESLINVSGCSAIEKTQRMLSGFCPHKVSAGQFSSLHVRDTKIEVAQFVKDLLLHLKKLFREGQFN
Assay: SPR
pKd: −log10 of the molar value.
MEASURED_QUANTITY: pKd

{"BINDER": "BDG38.083 (antibody, V domains shown, IgG1) VH: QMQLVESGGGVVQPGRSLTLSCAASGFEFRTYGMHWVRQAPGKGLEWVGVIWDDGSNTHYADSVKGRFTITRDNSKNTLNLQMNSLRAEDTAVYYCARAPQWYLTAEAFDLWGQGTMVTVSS VL: SYILTQPPSVSVAPGQTATITCGGNLIGAKLVHWYQQKPGQAPVLVIYDDSDRPSRIPERFSGSNIGNTATLTISDVEEGDEADYYCQVWDYSSDTMVFGGGTKLTVL", "ENDPOINT_RESULT": 10.25}
{"BINDER": "BDG38.081 (antibody, V domains shown, IgG1) VH: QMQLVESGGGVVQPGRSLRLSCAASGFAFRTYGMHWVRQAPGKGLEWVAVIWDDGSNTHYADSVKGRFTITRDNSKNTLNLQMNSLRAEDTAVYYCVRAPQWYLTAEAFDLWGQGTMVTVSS VL: SYVLTQPPSVSVAPGQTARITCGGNMIGAYLVHWYQQKPGQAPLLVIYDDVDRPDRIPERFSGSNSGNTATLTISRVEAGDEADYYCQVWDHNTQQMVFGGGTKLTVL", "ENDPOINT_RESULT": 10.29}
{"BINDER": "BDG38.082 (antibody, V domains shown, IgG1) VH: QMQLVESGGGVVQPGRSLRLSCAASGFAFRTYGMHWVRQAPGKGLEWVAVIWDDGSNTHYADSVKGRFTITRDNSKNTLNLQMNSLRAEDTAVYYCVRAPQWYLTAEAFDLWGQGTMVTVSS VL: SYVLTQPPSVSVAPGETATITCGGNMIGGYLVHWYQQKPGQAPVLVIYDDVDRPDRIPERFSGSNSGNTATLTISRVEAGDEADYYCQVWDHDTNQVVFGGGTKLTVL", "ENDPOINT_RESULT": 9.94}
{"BINDER": "BDG38.080 (antibody, V domains shown, IgG1) VH: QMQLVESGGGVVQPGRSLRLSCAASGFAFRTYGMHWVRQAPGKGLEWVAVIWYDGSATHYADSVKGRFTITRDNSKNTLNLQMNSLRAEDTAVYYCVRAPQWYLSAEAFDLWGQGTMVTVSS VL: SYVLTQPPSVSVAPGETATITCGGNLIGAYLVHWYQQKPGQAPVLVIYDDSDRPDRIPERFSGSNSGNTATLTISRVEAGDEADYYCQVWDHNTNHMVFGGGTKLTVL", "ENDPOINT_RESULT": 10.15}
{"BINDER": "BDG38.077 (antibody, V domains shown, IgG1) VH: QMQLVESGGGVVQPGRSLTLSCAASGFAFRTYGMHWVRQAPGKGLEWVGVIWYDGSATHYADSVKGRFTITRDNSKNTLNLQMNSLRAEDTAVYYCVRAPQWYLTAEAFDLWGQGTMVTVSS VL: SYVLTQPPSVSVAPGETATITCGGALIGSRLVHWYQQKPGQAPVLVIYDDSDRPSRIPERFSGSNIGNTATLTISDVEAGDEADYYCQVWDHSSNTYVFGGGTKLTVL", "ENDPOINT_RESULT": 10.49}
